Listing of entries alongside the reported IC50.
- TESTED_TARGET: GST fusion human ERK2 protein (Homo sapiens, UniProt P28482)
- Construct: purchased Carna Biosciences, Inc; host or cells: E. coli expression system
- Sequence (P28482 whole entry, the tested form may be a part): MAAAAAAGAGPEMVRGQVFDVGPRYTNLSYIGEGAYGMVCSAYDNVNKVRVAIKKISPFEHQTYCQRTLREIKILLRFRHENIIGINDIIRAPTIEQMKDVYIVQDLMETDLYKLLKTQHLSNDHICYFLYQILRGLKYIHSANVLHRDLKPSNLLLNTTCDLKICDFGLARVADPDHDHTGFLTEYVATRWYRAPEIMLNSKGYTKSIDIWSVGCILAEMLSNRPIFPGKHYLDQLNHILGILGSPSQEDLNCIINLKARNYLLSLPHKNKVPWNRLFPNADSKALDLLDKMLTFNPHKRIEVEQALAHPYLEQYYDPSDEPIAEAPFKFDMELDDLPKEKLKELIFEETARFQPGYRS
- ASSAY: ERK2 enzyme assay (2)
- Assay type: biochemical
- TEST_SETTINGS: ERK2 enzyme assay (2); read-out: ERK2 enzyme inhibitory activity (2)

Some compounds with recorded IC50:
For reference, reported IC50 for CC(C)c1cnnc(Nc2ccc3ncc(-c4cn(C)nc4C(F)F)cc3n2)c1 [Example 0635] stands at < 1000 nM

For reference, reported IC50 for CN1CCCC1c1nnc(Nc2ccc3ncc(-c4cnn(C)c4)cc3n2)s1 (centres unmarked) [Example 0247] stands at < 1000 nM

For reference, reported IC50 for CC(C)c1cnnc(Nc2ccc3ncc(-c4cn(C)nc4-c4ccncc4)cc3n2)c1 [Example 0552] stands at < 1000 nM

For reference, reported IC50 for CC(C)OC1CN(c2cnc3ccc(Nc4cc(C(C)C)cnn4)nc3c2)C1 [Example 0863] stands at < 1000 nM

Alright, here's another compound for you.
For reference, reported IC50 for CCn1cc(-c2cnc3ccc(Nc4cc(C(C)C)cnn4)nc3c2)cn1 [Example 0440] stands at < 1000 nM

* * *

- TESTED_TARGET: human PI3Kα protein (Homo sapiens, UniProt P42336)
- Construct: purchased Carna Biosciences, Inc; host or cells: baculovirus expression system
- Sequence (P42336 whole entry): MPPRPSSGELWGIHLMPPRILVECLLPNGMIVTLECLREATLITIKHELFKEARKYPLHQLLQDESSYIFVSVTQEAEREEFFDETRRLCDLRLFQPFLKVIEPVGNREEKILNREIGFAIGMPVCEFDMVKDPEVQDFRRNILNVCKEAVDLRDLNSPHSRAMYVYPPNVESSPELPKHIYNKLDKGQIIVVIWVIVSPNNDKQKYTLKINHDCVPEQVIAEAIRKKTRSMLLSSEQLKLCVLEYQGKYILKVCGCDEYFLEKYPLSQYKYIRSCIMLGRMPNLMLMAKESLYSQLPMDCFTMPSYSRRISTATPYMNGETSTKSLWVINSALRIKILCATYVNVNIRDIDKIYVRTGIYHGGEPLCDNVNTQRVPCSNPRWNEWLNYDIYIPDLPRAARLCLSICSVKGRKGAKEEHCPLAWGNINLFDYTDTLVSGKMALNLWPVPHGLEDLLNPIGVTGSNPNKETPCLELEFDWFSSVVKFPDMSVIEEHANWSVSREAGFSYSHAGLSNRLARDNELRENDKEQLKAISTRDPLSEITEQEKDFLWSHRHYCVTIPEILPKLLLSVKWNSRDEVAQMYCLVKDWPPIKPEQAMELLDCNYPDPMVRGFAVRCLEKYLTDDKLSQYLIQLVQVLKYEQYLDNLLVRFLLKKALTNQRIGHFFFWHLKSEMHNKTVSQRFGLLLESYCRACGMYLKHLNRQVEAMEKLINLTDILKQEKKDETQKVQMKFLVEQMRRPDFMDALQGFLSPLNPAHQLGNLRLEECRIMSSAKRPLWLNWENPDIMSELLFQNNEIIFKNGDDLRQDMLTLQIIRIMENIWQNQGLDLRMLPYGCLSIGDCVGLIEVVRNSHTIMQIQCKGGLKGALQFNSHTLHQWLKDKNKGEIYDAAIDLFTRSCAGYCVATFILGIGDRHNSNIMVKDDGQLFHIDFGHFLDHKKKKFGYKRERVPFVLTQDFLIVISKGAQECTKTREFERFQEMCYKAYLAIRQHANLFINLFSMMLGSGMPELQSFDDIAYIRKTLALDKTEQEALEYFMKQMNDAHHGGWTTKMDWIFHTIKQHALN
- Sequence (P27986 whole entry partner): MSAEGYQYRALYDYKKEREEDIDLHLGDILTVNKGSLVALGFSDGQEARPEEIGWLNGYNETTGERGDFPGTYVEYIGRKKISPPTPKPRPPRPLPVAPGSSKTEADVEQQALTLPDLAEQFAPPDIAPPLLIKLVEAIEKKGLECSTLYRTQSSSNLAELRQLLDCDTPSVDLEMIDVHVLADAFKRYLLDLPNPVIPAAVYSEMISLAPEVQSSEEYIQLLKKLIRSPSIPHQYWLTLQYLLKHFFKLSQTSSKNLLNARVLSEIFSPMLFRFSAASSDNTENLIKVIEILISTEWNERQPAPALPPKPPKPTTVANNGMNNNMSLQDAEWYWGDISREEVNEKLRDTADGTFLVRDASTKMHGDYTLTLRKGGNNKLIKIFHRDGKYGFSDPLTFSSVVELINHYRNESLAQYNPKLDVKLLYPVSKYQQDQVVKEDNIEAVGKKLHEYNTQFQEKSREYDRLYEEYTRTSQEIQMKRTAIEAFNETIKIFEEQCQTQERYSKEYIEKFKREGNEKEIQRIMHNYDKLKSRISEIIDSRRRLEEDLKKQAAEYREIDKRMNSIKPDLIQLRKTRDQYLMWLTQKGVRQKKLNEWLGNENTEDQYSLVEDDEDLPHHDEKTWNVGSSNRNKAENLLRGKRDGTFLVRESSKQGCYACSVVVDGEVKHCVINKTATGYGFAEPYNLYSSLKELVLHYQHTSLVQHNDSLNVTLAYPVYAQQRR
- ASSAY: PI3Kα enzyme assay (ADP-Glo)
- Type: biochemical
- TEST_SETTINGS: read-out: PI3Kα enzyme inhibitory activity
pIC50: −log10 of the molar value.
ENDPOINT_LABEL: pIC50

Some molecules with recorded pIC50:
The observed pIC50 for "CC(C)c1cnnc(Nc2ccc3ncccc3n2)c1" when tested with human PI3Kα protein (Homo sapiens, UniProt P42336) stands at 5.00 to 6.00

The observed pIC50 for "COC1CN(c2nn(C)cc2-c2cnc3ccc(Nc4cc(C(C)C)cnn4)nc3c2)C1" when tested with human PI3Kα protein (Homo sapiens, UniProt P42336) stands at > 6.00

The observed pIC50 for "CC(C)c1cnnc(Nc2ccc3ncc(-c4cn(C)nc4CN4CCN(c5cccnc5)CC4)cc3n2)c1" when tested with human PI3Kα protein (Homo sapiens, UniProt P42336) stands at > 6.00

The observed pIC50 for CN1CCCC1c1nnc(Nc2ccc3ncc(-c4cnn(C)c4)cc3n2)s1 (stereo not drawn) when tested with human PI3Kα protein (Homo sapiens, UniProt P42336) stands at 5.00 to 6.00

The observed pIC50 for "CC(C)c1cnnc(Nc2ccc3ncc(-c4cn(C)nc4COc4cccnc4)cc3n2)c1" when tested with human PI3Kα protein (Homo sapiens, UniProt P42336) stands at > 6.00

Next:
The observed pIC50 for "CC(C)c1cnnc(Nc2ccc3ncc(-c4cn(C)nc4-c4ccncc4)cc3n2)c1" when tested with human PI3Kα protein (Homo sapiens, UniProt P42336) stands at > 6.00

The observed pIC50 for "COc1ccc(OCc2nn(C)cc2-c2cnc3ccc(Nc4cc(C(C)C)cnn4)nc3c2)cc1" when tested with human PI3Kα protein (Homo sapiens, UniProt P42336) stands at > 6.00

The observed pIC50 for "CC(C)c1cnnc(Nc2ccc3ncc(-c4cnn(CC(F)(F)CN5CCOCC5)c4)cc3n2)c1" when tested with human PI3Kα protein (Homo sapiens, UniProt P42336) stands at > 6.00

The observed pIC50 for "CC(C)c1cnnc(Nc2ccc3ncc(-c4cnn(CCc5ccncc5)c4)cc3n2)c1" when tested with human PI3Kα protein (Homo sapiens, UniProt P42336) stands at > 6.00

The observed pIC50 for "Cn1cc(-c2cnc3ccc(Nc4nnc([C@H]5CCCO5)s4)nc3c2)cn1" when tested with human PI3Kα protein (Homo sapiens, UniProt P42336) stands at > 6.00

The observed pIC50 for "CC(C)c1cnnc(Nc2ccc3ncc(-c4cn(C)nc4-c4ccnc(N)c4)cc3n2)c1" when tested with human PI3Kα protein (Homo sapiens, UniProt P42336) stands at > 6.00

The observed pIC50 for "CC(C)c1cnnc(Nc2ccc3ncc(-c4cnn(C)c4)c(N4CCOCC4)c3n2)c1" when tested with human PI3Kα protein (Homo sapiens, UniProt P42336) stands at > 6.00

The observed pIC50 for "CC(C)c1cnnc(Nc2ccc3ncc(-c4cnn(CCCN5CCN(c6ccncc6)CC5)c4)cc3n2)c1" when tested with human PI3Kα protein (Homo sapiens, UniProt P42336) stands at > 6.00

The observed pIC50 for "CC(C)c1cnnc(Nc2ccc3ncc(N4CCN(S(C)(=O)=O)CC4)cc3n2)c1" when tested with human PI3Kα protein (Homo sapiens, UniProt P42336) stands at > 6.00

The observed pIC50 for "CC(C)c1cnnc(Nc2ccc3ncc(N4CCS(=O)(=O)CC4)cc3n2)c1" when tested with human PI3Kα protein (Homo sapiens, UniProt P42336) stands at 5.00 to 6.00

The observed pIC50 for "Cc1nn(CCCO)cc1-c1cnc2ccc(Nc3cc(C(C)C)cnn3)nc2c1" when tested with human PI3Kα protein (Homo sapiens, UniProt P42336) stands at > 6.00

The observed pIC50 for "Cn1cc(-c2cnc3ccc(Nc4cc(C(C)(C)O)cnn4)nc3c2)cn1" when tested with human PI3Kα protein (Homo sapiens, UniProt P42336) stands at > 6.00

The observed pIC50 for "Cc1nn(C)cc1-c1cnc2ccc(Nc3cc(C(C)C)cnn3)nc2c1" when tested with human PI3Kα protein (Homo sapiens, UniProt P42336) stands at > 6.00

The observed pIC50 for "CC(C)c1cnnc(Nc2ccc3ncc(-c4cn(C)nc4N(C)C)cc3n2)c1" when tested with human PI3Kα protein (Homo sapiens, UniProt P42336) stands at > 6.00

* * *

Listing of entries alongside the reported pIC50.
- TESTED_TARGET: GST fusion human ERK2 protein (Homo sapiens, UniProt P28482)
- Construct: purchased Carna Biosciences, Inc; host or cells: E. coli expression system
- ASSAY: ERK2 enzyme assay (2)
- Type: biochemical
- TEST_SETTINGS: ERK2 enzyme assay (2); read-out: ERK2 enzyme inhibitory activity (2)
pIC50: −log10 of the molar value.

Some molecules with recorded pIC50:
The observed pIC50 for "CC(C)c1cnnc(Nc2ccc3ncc(N4CCCC4)cc3n2)c1" when tested with GST fusion human ERK2 protein (Homo sapiens, UniProt P28482) stands at > 6.00

The observed pIC50 for "Cn1cc(-c2cnc3ccc(Nc4cc(C5CC5)cnn4)nc3c2)c(-c2cccnc2)n1" when tested with GST fusion human ERK2 protein (Homo sapiens, UniProt P28482) stands at > 6.00

The observed pIC50 for "Cc1ncccc1-c1nn(C)cc1-c1cnc2ccc(Nc3cc(C(C)C)cnn3)nc2c1" when tested with GST fusion human ERK2 protein (Homo sapiens, UniProt P28482) stands at > 6.00

The observed pIC50 for "CC(C)c1cnnc(Nc2ccc3ncc(-c4cn(C)nc4NCc4cnn(C)c4)cc3n2)c1" when tested with GST fusion human ERK2 protein (Homo sapiens, UniProt P28482) stands at 5.00 to 6.00

The observed pIC50 for "CC(C)c1cnnc(Nc2ccc3ncc(-c4cnn(CC5CN(C)C5)c4)cc3n2)c1" when tested with GST fusion human ERK2 protein (Homo sapiens, UniProt P28482) stands at > 6.00

The observed pIC50 for CC(=O)N1CCCC(Cn2cc(-c3cnc4ccc(Nc5cc(C(C)C)cnn5)nc4c3)cn2)C1 (centres unmarked) when tested with GST fusion human ERK2 protein (Homo sapiens, UniProt P28482) stands at > 6.00

The observed pIC50 for "CC(C)c1cnnc(Nc2ccc3ncc(N4CC(F)(F)C4)cc3n2)c1" when tested with GST fusion human ERK2 protein (Homo sapiens, UniProt P28482) stands at > 6.00

The observed pIC50 for "CC(C)c1cnnc(Nc2ccc3ncc(C(=O)O)cc3n2)c1" when tested with GST fusion human ERK2 protein (Homo sapiens, UniProt P28482) stands at 4.30 to 5.00

The observed pIC50 for "CC(C)c1cnnc(Nc2ccc3ncc(-c4cn(C)nc4Oc4ccccc4)cc3n2)c1" when tested with GST fusion human ERK2 protein (Homo sapiens, UniProt P28482) stands at > 6.00

The observed pIC50 for "CC(C)c1cnnc(Nc2ccc3ncc(C4=CCN(C(=O)N(C)C)CC4)cc3n2)c1" when tested with GST fusion human ERK2 protein (Homo sapiens, UniProt P28482) stands at > 6.00

Next:
The observed pIC50 for "CC(C)c1cnnc(Nc2ccc3ncc(-c4cnn(CCCN5CC(Oc6ccccc6)C5)c4)cc3n2)c1" when tested with GST fusion human ERK2 protein (Homo sapiens, UniProt P28482) stands at > 6.00

The observed pIC50 for "CC(C)c1cnnc(Nc2ccc3ncc(-n4cnc(CCN(C)C)c4)cc3n2)c1" when tested with GST fusion human ERK2 protein (Homo sapiens, UniProt P28482) stands at > 6.00

The observed pIC50 for "CC(C)c1cnnc(Nc2ccc3ncc(-c4cn(C)nc4C(F)(F)F)cc3n2)c1" when tested with GST fusion human ERK2 protein (Homo sapiens, UniProt P28482) stands at > 6.00

The observed pIC50 for "Cn1cc(-c2cnc3ccc(Nc4cc(N5CCCC5)cnn4)nc3c2)cn1" when tested with GST fusion human ERK2 protein (Homo sapiens, UniProt P28482) stands at > 6.00

The observed pIC50 for "Cc1cnnc(Nc2ccc3ncc(-c4cn(C)nc4-c4cccnc4)cc3n2)c1" when tested with GST fusion human ERK2 protein (Homo sapiens, UniProt P28482) stands at 5.00 to 6.00

The observed pIC50 for "Cc1nn(C)nc1-c1cnc2ccc(Nc3cc(C(C)C)cnn3)nc2c1" when tested with GST fusion human ERK2 protein (Homo sapiens, UniProt P28482) stands at > 6.00

The observed pIC50 for "CC(C)c1cnnc(Nc2ccc3ncc(-c4cn(C)nc4N)cc3n2)c1" when tested with GST fusion human ERK2 protein (Homo sapiens, UniProt P28482) stands at > 6.00
